# Target under test: cGMP-dependent protein kinases (Bos taurus, UniProt P00516)
# Sequence (P00516 2-671 limits assumed): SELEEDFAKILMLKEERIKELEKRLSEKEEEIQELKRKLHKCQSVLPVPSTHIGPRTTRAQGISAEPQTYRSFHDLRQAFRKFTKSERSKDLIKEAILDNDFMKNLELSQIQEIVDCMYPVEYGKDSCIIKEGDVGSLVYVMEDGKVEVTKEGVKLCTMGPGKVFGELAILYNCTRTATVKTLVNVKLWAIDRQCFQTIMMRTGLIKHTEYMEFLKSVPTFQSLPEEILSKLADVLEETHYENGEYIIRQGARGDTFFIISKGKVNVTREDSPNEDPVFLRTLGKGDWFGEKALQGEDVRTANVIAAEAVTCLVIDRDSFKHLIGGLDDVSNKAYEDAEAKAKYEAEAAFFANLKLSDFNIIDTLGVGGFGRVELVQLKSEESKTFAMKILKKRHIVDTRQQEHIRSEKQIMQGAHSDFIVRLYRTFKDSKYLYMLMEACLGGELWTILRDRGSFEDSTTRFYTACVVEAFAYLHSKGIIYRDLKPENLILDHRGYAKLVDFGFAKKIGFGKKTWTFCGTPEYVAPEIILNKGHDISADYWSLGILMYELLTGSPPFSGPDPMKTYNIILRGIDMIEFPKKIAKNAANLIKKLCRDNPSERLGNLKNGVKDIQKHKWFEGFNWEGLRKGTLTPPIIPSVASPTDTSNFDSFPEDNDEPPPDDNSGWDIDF
Readout name: pKi
Please note pKi is a logarithmic value: minus log10 of concentration in mol/L. Answer with that number alone.

Enquiry: Return reported pKi; argument: O=c1c2nc(Br)n([C@@H]3O[C@@H]4CO[P@@](O)(=S)O[C@H]4[C@H]3O)c2nc2[nH]c(-c3ccccc3)cn12 [RP -8-Br-PET-cGMPS]
Return: 7.52
